assay: Calcium salts, physical/chemical attributes in orange juice, 350 mg/100 mL calcium load; type: physicochemical; conditions: 48 hrs
Assign Calcium in Juice (48 hrs) to each entry below.
Entry rule: numbers only, all in mg/100 mL.

What the record says about O.O.O=C([O-])[C@H](O)[C@@H](O)C(=O)[O-].[Ca+2] [calcium L-tartrate dihydrate] : Calcium in Juice (48 hrs) is 113

What the record says about N[C@@H](CCC(=O)[O-])C(=O)[O-].O.O.O.O.[Ca+2] [calcium L-glutamate tetrahydrate] : Calcium in Juice (48 hrs) is 161

What the record says about O.O.O=P([O-])([O-])O.[Ca+2] [dicalcium phosphate dihydrate] : Calcium in Juice (48 hrs) is 141

What the record says about O=C([O-])CC(O)(CC(=O)[O-])C(=O)[O-].O=C([O-])CC(O)(CC(=O)[O-])C(=O)[O-].[Ca+2].[Ca+2].[Ca+2] [tri-calcium citrate] : Calcium in Juice (48 hrs) is 140

What the record says about O.O.O.O=C([O-])/C=C/C(=O)[O-].[Ca+2] [calcium fumarate trihydrate] : Calcium in Juice (48 hrs) is 158

What the record says about O.O=C([O-])CCC(=O)[O-].[Ca+2] [calcium succinate monohydrate] : Calcium in Juice (48 hrs) is 161

What the record says about O.O=P([O-])([O-])OCC(O)CO.[Ca+2] (stereo not shown) [calcium glycerophosphate monohydrate] : Calcium in Juice (48 hrs) is 145

What the record says about CC(O)C(=O)[O-].CC(O)C(=O)[O-].O.O.O.O.O.[Ca+2] (stereo not shown) [calcium lactate pentahydrate] : Calcium in Juice (48 hrs) is 157

What the record says about O=C([O-])[O-].[Ca+2] [calcium carbonate] : Calcium in Juice (48 hrs) is 158

What the record says about O.O=P([O-])(O)O.O=P([O-])(O)O.[Ca+2] [monocalcium phosphate monohydrate] : Calcium in Juice (48 hrs) is 164

What the record says about O=C[O-].O=C[O-].[Ca+2] [calcium formate] : Calcium in Juice (48 hrs) is 160

What the record says about O=P([O-])([O-])[O-].O=P([O-])([O-])[O-].[Ca+2].[Ca+2].[Ca+2] [tricalcium phosphate] : Calcium in Juice (48 hrs) is 147

What the record says about O=P([O-])([O-])[O-].O=P([O-])([O-])[O-].[Ca+2].[Ca+2].[Ca+2] [tricalcium phosphate (fine), tricalcium phosphate] : Calcium in Juice (48 hrs) is 157

What the record says about O=C([O-])CC(O)C(=O)[O-].[Ca+2] (stereo not shown) [calcium malate] : Calcium in Juice (48 hrs) is 166

What the record says about O.O.[Ca+2].[Cl-].[Cl-] [calcium chloride dihydrate] : Calcium in Juice (48 hrs) is 163

What the record says about O=P([O-])([O-])O.[Ca+2] [dicalcium phosphate anhydrous] : Calcium in Juice (48 hrs) is 156

###

assay: Calcium salts, physical/chemical attributes in orange juice, 450 mg/100 mL calcium load; assay type: physicochemical; settings: 48 hours
reported-metric: Brix (48 Hours)

What the record says about CC(O)C(=O)[O-].CC(O)C(=O)[O-].O.O.O.O.O.[Ca+2] (centres unmarked) [calcium lactate pentahydrate] : Brix (48 Hours) is 13.01

What the record says about O.O=P([O-])([O-])OCC(O)CO.[Ca+2] (centres unmarked) [calcium glycerophosphate monohydrate] : Brix (48 Hours) is 12.73

What the record says about O=C([O-])[O-].[Ca+2] [calcium carbonate] : Brix (48 Hours) is 12.44

What the record says about O.O.O=P([O-])([O-])O.[Ca+2] [dicalcium phosphate dihydrate] : Brix (48 Hours) is 12.26

What the record says about O.O.[Ca+2].[Cl-].[Cl-] [calcium chloride dihydrate] : Brix (48 Hours) is 12.70

What the record says about O.O.O.O=C([O-])/C=C/C(=O)[O-].[Ca+2] [calcium fumarate trihydrate] : Brix (48 Hours) is 12.96

What the record says about O.O=C([O-])CCC(=O)[O-].[Ca+2] [calcium succinate monohydrate] : Brix (48 Hours) is 12.85

What the record says about O=C([O-])CC(O)(CC(=O)[O-])C(=O)[O-].O=C([O-])CC(O)(CC(=O)[O-])C(=O)[O-].[Ca+2].[Ca+2].[Ca+2] [tri-calcium citrate] : Brix (48 Hours) is 12.08

###

assay: Calcium salts, physical/chemical attributes in orange juice, 350 mg/100 mL calcium load; assay type: physicochemical; conditions: 48 hrs
Field 'label' (enum: TRUE / FALSE). Set to TRUE when Titratable Acidity (%) (48 hrs) is strictly under 0.6%; else FALSE.

(Q) Check if Titratable Acidity (%) (48 hrs) falls below 0.6% for O=C[O-].O=C[O-].[Ca+2] [calcium formate] .
(A) FALSE

(Q) Check if Titratable Acidity (%) (48 hrs) falls below 0.6% for O=C([O-])CC(O)(CC(=O)[O-])C(=O)[O-].O=C([O-])CC(O)(CC(=O)[O-])C(=O)[O-].[Ca+2].[Ca+2].[Ca+2] [tri-calcium citrate] .
(A) FALSE

(Q) Check if Titratable Acidity (%) (48 hrs) falls below 0.6% for CC(O)C(=O)[O-].CC(O)C(=O)[O-].O.O.O.O.O.[Ca+2] (centres unmarked) [calcium lactate pentahydrate] .
(A) FALSE

(Q) Check if Titratable Acidity (%) (48 hrs) falls below 0.6% for O.O.O.O=C([O-])/C=C/C(=O)[O-].[Ca+2] [calcium fumarate trihydrate] .
(A) FALSE

(Q) Check if Titratable Acidity (%) (48 hrs) falls below 0.6% for O.O=P([O-])(O)O.O=P([O-])(O)O.[Ca+2] [monocalcium phosphate monohydrate] .
(A) FALSE

(Q) Check if Titratable Acidity (%) (48 hrs) falls below 0.6% for O=P([O-])([O-])[O-].O=P([O-])([O-])[O-].[Ca+2].[Ca+2].[Ca+2] [tricalcium phosphate (fine), tricalcium phosphate] .
(A) TRUE

(Q) Check if Titratable Acidity (%) (48 hrs) falls below 0.6% for O=C([O-])CC(O)C(=O)[O-].[Ca+2] (centres unmarked) [calcium malate] .
(A) FALSE

(Q) Check if Titratable Acidity (%) (48 hrs) falls below 0.6% for N[C@@H](CCC(=O)[O-])C(=O)[O-].O.O.O.O.[Ca+2] [calcium L-glutamate tetrahydrate] .
(A) FALSE

(Q) Check if Titratable Acidity (%) (48 hrs) falls below 0.6% for O.O.O=P([O-])([O-])O.[Ca+2] [dicalcium phosphate dihydrate] .
(A) FALSE

(Q) Check if Titratable Acidity (%) (48 hrs) falls below 0.6% for O.O.O=C([O-])[C@H](O)[C@@H](O)C(=O)[O-].[Ca+2] [calcium L-tartrate dihydrate] .
(A) TRUE

###

test: Calcium salts, physical/chemical attributes in orange juice, 450 mg/100 mL calcium load; format: physicochemical; settings: 48 hours
I would appreciate it if you labelled entries condition met when pH (48 Hours) is 4 or higher, otherwise condition not met.

(Q) Please tell me: is the compound O.O=P([O-])(O)O.O=P([O-])(O)O.[Ca+2] [monocalcium phosphate monohydrate] at or over 4 in terms of pH (48 Hours)?
(A) condition not met

(Q) Please tell me: is the compound O=C([O-])CC(O)C(=O)[O-].[Ca+2] (centres unmarked) [calcium malate] at or over 4 in terms of pH (48 Hours)?
(A) condition met

(Q) Please tell me: is the compound O.O.O=C([O-])[C@H](O)[C@@H](O)C(=O)[O-].[Ca+2] [calcium L-tartrate dihydrate] at or over 4 in terms of pH (48 Hours)?
(A) condition met

(Q) Please tell me: is the compound O=C[O-].O=C[O-].[Ca+2] [calcium formate] at or over 4 in terms of pH (48 Hours)?
(A) condition met

###

Assign pH (48 hrs) to each entry below.
assay: Calcium salts, physical/chemical attributes in orange juice, 350 mg/100 mL calcium load; type: physicochemical; settings: 48 hrs
Output: the number by itself.

What the record says about O=C[O-].O=C[O-].[Ca+2] [calcium formate] : pH (48 hrs) is 4.18

What the record says about O=C([O-])CC(O)(CC(=O)[O-])C(=O)[O-].O=C([O-])CC(O)(CC(=O)[O-])C(=O)[O-].[Ca+2].[Ca+2].[Ca+2] [tri-calcium citrate] : pH (48 hrs) is 4.06

What the record says about O=C([O-])[O-].[Ca+2] [calcium carbonate] : pH (48 hrs) is 5.15

What the record says about O.O=P([O-])([O-])OCC(O)CO.[Ca+2] (centres unmarked) [calcium glycerophosphate monohydrate] : pH (48 hrs) is 4.42

What the record says about O=P([O-])([O-])[O-].O=P([O-])([O-])[O-].[Ca+2].[Ca+2].[Ca+2] [tricalcium phosphate] : pH (48 hrs) is 4.34

What the record says about O=P([O-])([O-])[O-].O=P([O-])([O-])[O-].[Ca+2].[Ca+2].[Ca+2] [tricalcium phosphate (fine), tricalcium phosphate] : pH (48 hrs) is 4.49

What the record says about CC(O)C(=O)[O-].CC(O)C(=O)[O-].O.O.O.O.O.[Ca+2] (centres unmarked) [calcium lactate pentahydrate] : pH (48 hrs) is 4.01

What the record says about O.O=C([O-])CCC(=O)[O-].[Ca+2] [calcium succinate monohydrate] : pH (48 hrs) is 4.56
